// P8_MyD88 Rank (after) lookup, one value per entry
testedSystem: MyD88^TIR (Homo sapiens)
Construct: MyD88 (residues 148–296); 6xHis; made in house; host or cells: E. coli BL21 (DE3)
Sequence (Q99836 148-296): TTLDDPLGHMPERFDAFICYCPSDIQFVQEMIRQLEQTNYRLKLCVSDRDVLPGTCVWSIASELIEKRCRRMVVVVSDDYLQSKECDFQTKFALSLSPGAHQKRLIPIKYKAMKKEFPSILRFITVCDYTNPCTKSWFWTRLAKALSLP
protocolSummary: T‐Surf phage library (P8 and P3) selection against MyD88^TIR, four rounds, NGS read counts
Type: binding
testContext: P8 library, selection against MyD88, rank by count after grouping
In your answer, state the number alone without any accompanying words.

{"columns": ["biopolymerSequence", "testedSystem", "P8_MyD88 Rank (after)"],
 "data": [
  ["YPQDLDWFYERLVSQF", "MyD88^TIR (Homo sapiens)", 719]
]}

Noted for YLLAGDFWIFFTLLTA : its P8_MyD88 Rank (after) reads 738

Noted for WALDERLIIQYANETM : its P8_MyD88 Rank (after) reads 679

Noted for LGYHWIDWAYSVGIED : its P8_MyD88 Rank (after) reads 750

====

// P3_MAL Rank (before) lookup, one value per entry
testedSystem: MAL^TIR (Homo sapiens)
Construct: MAL (residues 79–221); 6xHis; made in house; host or cells: E. coli BL21 (DE3)
protocolSummary: T‐Surf phage library (P8 and P3) selection against MAL^TIR, four rounds, NGS read counts
Type: binding
testContext: P3 library, selection against MAL, rank by count before grouping
In your answer, state the number alone without any accompanying words.

// solved cases for P3_MAL Rank (before) follow
{"columns": ["biopolymerSequence", "measuredNumber"],
 "data": [
  ["WFFPETGKIFEARKTI", 1219],
  ["SNLRPKVMNYLMRTKT", 1328],
  ["SSFREGLWRLLDLSKQ", 3144],
  ["NELVHVWSSKAHSPVG", 3294],
  ["DWFVSKLSQQILQREK", 1862],
  ["SSFRVGLCRLMALIQQ", 3125],
  ["DTALTNSGFHIFRDNE", 1984],
  ["PNLRTKVLSYPMRTMT", 2707]
]}

Noted for KHSNNDQKWAETASRK : its P3_MAL Rank (before) reads 3469

Noted for KWFLAKLIYALSRNPH : its P3_MAL Rank (before) reads 3484

Noted for KMQKWKDALYEAAN : its P3_MAL Rank (before) reads 3685

Noted for KHCWDRLCYMVNDSSR : its P3_MAL Rank (before) reads 3468

Noted for KERLHQWKLALTQAANLS : its P3_MAL Rank (before) reads 3603

Noted for YTLLAICMMRCIVIV : its P3_MAL Rank (before) reads 1535

Noted for WHFHVRLCLRKLLQAM : its P3_MAL Rank (before) reads 1290

====

testedSystem: MAL^TIR (Homo sapiens, UniProt P58753)
Construct: MAL (residues 79–221); 6xHis; made in house; host or cells: E. coli BL21 (DE3)
Sequence (P58753 79-221): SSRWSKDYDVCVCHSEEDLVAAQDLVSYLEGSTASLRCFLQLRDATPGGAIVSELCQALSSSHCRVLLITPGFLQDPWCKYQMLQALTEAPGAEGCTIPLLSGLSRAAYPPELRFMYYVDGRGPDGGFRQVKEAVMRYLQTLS
protocolSummary: T‐Surf phage library (P8 and P3) selection against MAL^TIR, four rounds, NGS read counts
Type: binding
testContext: P3_MAL: rank by count after grouping
// Rank (after) lookup, one value per entry

Noted for RAFVADLDEALKQRAL : its Rank (after) reads 182

Noted for KERLHQWKLALTQAANLSGW : its Rank (after) reads 111

====

testedSystem: MyD88^TIR (Homo sapiens)
Construct: MyD88 (residues 148–296); 6xHis; made in house; host or cells: E. coli BL21 (DE3)
protocolSummary: T‐Surf phage library (P8 and P3) selection against MyD88^TIR, four rounds, NGS read counts
Type: binding
testContext: P8 library, selection against MyD88 TIR; rank by count before grouping
Label class 0 if P8_MyD88 Rank (before) falls below 600; label class 1 in every other case.

Here are 3 sequences together with their reported answers.
{"columns": ["biopolymerSequence", "className"],
 "data": [
  ["PQELEWCYERLVSLIL", "class 1"],
  ["DPQELDWYYERLVSLF", "class 1"],
  ["DWVYNELIAHLENTEH", "class 0"]
]}

Moving on to another sequence below.
Query block: Check if P8_MyD88 Rank (before) >= 600 (inclusive). Item: AHDELWVLRYLLPTLE
Result block: class 0
